Values compiled from the supplement of paper PMC12042874.

# run-description: amyloid nucleation score (Sup35N fusion, yeast selection) (log enrichment); library NNK3; higher = more nucleation; inactive = no reads after selection;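 note: zero at mode of non-aggregating sequences after 7 days selection at 30°C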
measurement-type: amyloid nucleation score

# annotated cases, reported amyloid nucleation score shown
1. YKYVTNDLSRVILRPVSARY ... inactive
2. SNFFRYIFYTRSQFSFQLIN ... inactive
3. YGLVLGFRRTGYTCDDSLNW ... inactive
4. ASVACLAFP ... inactive
5. HYINYINLQMVYFDVGQMYC ... 2.96

Query MIHAFGFLMMCLVQSYLELF yields amyloid nucleation score of inactive

Query QWIVDFCNCTWEVVRVLRFC yields amyloid nucleation score of inactive

Query YVDCYRFAVMQEFPCQYRGD yields amyloid nucleation score of inactive

Query NTHKQWVRTLRWVLVSYNCC yields amyloid nucleation score of inactive

====

# run-description: amyloid nucleation score (Sup35N fusion, yeast selection) (log enrichment); library NNK2; higher = more nucleation; inactive = no reads after selection
measurement-type: amyloid nucleation score

1) EEKDQRLISDSWGMF ... -0.013
2) YDLDEGYSLMFVPQEQICAE ... inactive
3) VLSLSVDFSCKRSCIMDTQV ... 3.95
4) TDFCSHKTWLSAVGISV ... 0.037

Let's switch to this substance now.
Query IRIGFRMHCLVIQYMNCFIS yields amyloid nucleation score of 2.18

====

# run-description: amyloid nucleation score (Sup35N fusion, yeast selection) (log enrichment); library NNK2; higher = more nucleation; inactive = no reads after selection
Label 0.0 if amyloid nucleation score falls below -0.2; label 1.0 in every other case.

Is amyloid nucleation score at least -0.2? Consider SILATYPMVRSRISIMNATL
1.0

Is amyloid nucleation score at least -0.2? Consider PTGPNSGNCIVLCPSDKSHE
0.0

Is amyloid nucleation score at least -0.2? Consider NKEECL
1.0

Is amyloid nucleation score at least -0.2? Consider LNFKWANCVFVDSNCQQ
1.0

Is amyloid nucleation score at least -0.2? Consider DRNMSVNI
1.0

Is amyloid nucleation score at least -0.2? Consider LDYLGETNLLVRWHLAVTAS
1.0

Is amyloid nucleation score at least -0.2? Consider SFIWHLPFVC
1.0

Is amyloid nucleation score at least -0.2? Consider FCISFYTNIPSDS
0.0

====

# run-description: amyloid nucleation score (Sup35N fusion, yeast selection) (log enrichment); library NNK1; higher = more nucleation; inactive = no reads after selection
Label 0 (no) if amyloid nucleation score falls below 0.03; label 1 (yes) in every other case.

1) EISQNTL ... 0 (no)
2) FCSLLHPFTWYLSEHSMGLG ... 1 (yes)

Is amyloid nucleation score at least 0.03? Consider SLRKKVSSVCSC
1 (yes)

Is amyloid nucleation score at least 0.03? Consider NYLLWVQVWCRDWGNWGIMG
1 (yes)

Is amyloid nucleation score at least 0.03? Consider TLSRFPLAALNLVRVR
1 (yes)

Is amyloid nucleation score at least 0.03? Consider ADEVMKRRQLLINIVEYFMK
1 (yes)

====

# run-description: amyloid nucleation score (Sup35N fusion, yeast selection) (log enrichment); library NNK2; higher = more nucleation; inactive = no reads after selection
measurement-type: amyloid nucleation score
Please give the numeric answer without any surrounding text.

# annotated cases, reported amyloid nucleation score shown
1) CTCQVFPHNALCQGSWVLPV ... 1.07
2) RIFVWVGSVWFWGVS ... 3.55
3) KITRWLCYIFTTLL ... -1.7

Query LYSDMRASDRYWTLSFDCKI yields amyloid nucleation score of 1.88

Query VQKRRGFILTSFR yields amyloid nucleation score of -0.173

Query VSYYIRVYF yields amyloid nucleation score of 5.65

Query CARYLIEVRYKGKKIQYSM yields amyloid nucleation score of -0.837
